parameter measured: melting point
Your reply should be a number followed by the unit it is expressed in.

Here is how some compounds turned out for melting point.
Cc1occc(=O)c1O [3-hydroxy-2-methyl-4-pyrone]; 163 °C
CC(C)c1ccc(O)cc1; 60 °C

Okay, now this compound:
Data request: Quick one: melting point of CCOC1Oc2ccc(C)cc2C(=O)/C1=C\Nc1nc2ccc(Cl)cc2s1 (stereo not drawn) ?
Data returned: 147 °C

====

Threshold check on melting point: at or above 100 °C gives Satisfied, strictly below gives Not satisfied.

Observe how each entry below is paired with its result.
CCCCCCCCCC(C)=O; Not satisfied
C#CCCCCCCCCCCCCCCCC; Not satisfied
OCC(F)(F)C(F)(F)CO; Not satisfied
Cc1ccccc1-c1nnn[nH]1; Satisfied

Data request: Could you please find out whether Cc1nc2ccccc2c(=O)n1-c1ccccc1Cl has melting point that meets 100 °C or exceeds it?
Data returned: Satisfied

====

Labelling field: enter Satisfied if recorded melting point is less than 70 °C. Enter Not satisfied if it equals or exceeds that cut-off.

Data request: Given Cc1cc(C)nc(NS(=O)(=O)c2ccc(N)cc2)n1 [sulfamethazine] , is recorded melting point strictly lower than 70 °C?
Data returned: Not satisfied

Data request: Subsequent entry: CC(=O)c1cccc([N+](=O)[O-])c1 [3'-nitroacetophenone]
Data returned: Not satisfied

Data request: Repeat for the following compound: N#CCc1ccc(N)cc1 [4-aminophenylacetonitrile]
Data returned: Satisfied

Data request: Item: COc1cc(C(=O)Cl)cc(OC)c1OC [3,4,5-trimethoxybenzoyl chloride]
Data returned: Not satisfied

====

parameter measured: melting point

Some compounds with recorded melting point:
Brc1cc(Br)c(Br)cc1Br; 182 °C
C[C@]12CC[C@@H]3c4ccc(O)cc4CC[C@H]3[C@@H]1CC[C@@H]2O; 176 °C

Data request: So what's the measured melting point for this one? O=C(O)c1cc(F)c(F)c(F)c1F
Data returned: 86 °C

Data request: Try this compound too: Oc1cc(O)c2ccccc2c1 [1,3-dihydroxynaphthalene]
Data returned: 125 °C

Data request: What do you have for Nc1ccc(S(=O)(=O)c2ccc(N)cc2)cc1 ?
Data returned: 177 °C

====

As shown below, each of these molecules has a reported melting point value.
Write the answer as a number in °C, unit excluded.

N/C(N)=N/c1nc(CSCCC(N)=N/S(N)(=O)=O)cs1 [Famotidine]; 164
O=C(CCCN1CCC2(CC1)C(=O)NCN2c1ccccc1)c1ccc(F)cc1 [spiperone]; 190
c1ccc2cc3cc4ccccc4cc3cc2c1 [naphthacene]; 357

Here is another molecule to look at.
Data request: Sample O=C(CCl)OC(=O)CCl [chloroacetic anhydride] — what was its melting point?
Data returned: 58

====

Readings of melting point for the listed molecules
Hi! Could you send only the number? It should be in °C, unit omitted.

Recorded results for 3 molecules are shown here.
CC(=O)[C@H]1CC[C@H]2[C@@H]3CCC4=CC(=O)CC[C@]4(C)[C@H]3CC[C@]12C [Progesterone]; 130
CC(=O)OC[C@H]1O[C@@H](S)[C@H](OC(C)=O)[C@@H](OC(C)=O)[C@@H]1OC(C)=O [1-thio-beta-D-glucose tetraacetate]; 116
Clc1cccc2ccccc12 [1-Chloronaphthalene]; -21.5

Turning now to a further record.
Data request: What measured melting point goes with CCC(C)Br (centres undefined) [2-bromobutane] ?
Data returned: -112

====

// melting point lookup, one value per entry
Enter the number, and then the unit.

Data request: Report melting point for O=C(O)c1ccc(Cl)s1 [5-chlorothiophene-2-carboxylic acid] please.
Data returned: 151 °C

Data request: How about this compound: Nc1ncc(C(F)(F)F)cc1Br [2-amino-3-bromo-5-(trifluoromethyl)pyridine]
Data returned: 100 °C

Data request: Then this compound: Cc1ccc(S(=O)(=O)CCCl)cc1 [2-chloroethyl p-tolyl sulfone]
Data returned: 79 °C

Data request: Item: O=[N+]([O-])c1cccc(O)c1 [3-nitrophenol]
Data returned: 97 °C

Data request: Also need Nc1c(Br)cc(Br)cc1[N+](=O)[O-] [2,4-dibromo-6-nitroaniline] , thanks.
Data returned: 130 °C

Data request: Entry to check: NNC(=O)NN [Carbonohydrazide]
Data returned: 158 °C

====

melting point overview
Value and unit, in that order.

Examples from the recorded data:
CCCCCCSc1cc(N(NC(=O)OC(C)(C)C)C(=O)OC(C)(C)C)cc(SCCCCCC)c1SCCCCCC; 74.5 °C
Br/C(C)=CC [2-bromo-cis-2-butene]; -111 °C
CNCc1ccccc1 [N-benzylmethylamine]; -55 °C
Cc1ccc(C)c(O)c1 [2,5-dimethylphenol]; 76 °C
Clc1ccc(-c2ccc(Cl)cc2Cl)cc1 [PCB-28]; 58 °C
O=C(CCl)N1CCOCC1 [4-(chloroacetyl)morpholine]; 29 °C

Data request: # melting point lookup, item ClCc1ccc(Cl)cc1 [4-chlorobenzyl_chloride]
Data returned: 30 °C

Data request: Query CCC(C)Cl (stereo not given) [2-chlorobutane] next
Data returned: -131 °C

====

Please use True whenever melting point is not below 10 °C, and False whenever it is.

Example results:
N#CCc1ccccc1 [phenylacetonitrile]; False
C=C(C)Cn1c(N)cc(=O)n(C)c1=O [Uracil, 6-amino-3-methyl-1- (2-methylallyl)-]; True
Cc1ccccc1C#N [o-tolunitrile]; False
ClC(Cl)=C/C3C(C(=O)OCc2cccc(Oc1ccccc1)c2)C3(C)C (centres undefined) [Permethrin]; True
CCC(C)(C)C [2,2-dimethylbutane]; False
CCCCCCCCCC(=O)O [decanoic acid]; True
CCCCCCCC(C)O (centres undefined) [2-nonanol]; False

Next up:
Data request: Hi, just wondering whether Nc1ccc(C(=O)O)cc1 [4-aminobenzoic acid] shows melting point of 10 °C or higher.
Data returned: True

====

Measured melting point, listed per entry.
Numbers only; they are read as °C.

See these solved cases before continuing.
Nc1ccc(N)cc1 [Benzene-1,4-diamine]; 140
c1cnccn1 [Pyrazine]; 55
O=C1c2ccccc2CCc2ccccc21 [dibenzosuberone]; 33
ClC1C(Cl)C(Cl)C(Cl)C(Cl)C1Cl (stereo not drawn) [Lindane]; 114
CC1CCC(C(C)C)C(OC(=O)/C(=C/c2ccccc2)Cc2ccccc2)C1 (stereo not drawn); 65
O=[N+]([O-])c1cccc(F)c1 [1-fluoro-3-nitrobenzene]; 2
CCOC(=O)Nc1ccc2c(c1)N(C(=O)CCN1CCOCC1)c1ccccc1S2 [Moricizine]; 156

Data request: For the compound CC(=O)Nc1ccc(N)cn1 [2-acetamido-5-aminopyridine] , what melting point is on record?
Data returned: 149

====

parameter measured: melting point (°C)
Numbers only; they are read as °C.

Please review the entries below; each comes with its answer.
CC(C)(c1ccc(O)cc1)c1ccc(O)cc1; 156
CCCCCCCCC(C)O (stereo not given); -2
N#CCc1ccc(O)cc1 [4-hydroxyphenylacetonitrile]; 69
C(O)[C@H](O)[C@@H](O)[C@@H](O)CO; 101
CC(C)C[C@H](NC(=O)OCC1c2ccccc2-c2ccccc21)C(=O)O; 154
N#Cc1cccnc1Oc1ccccc1; 108

Data request: Quick check: melting point of CCC(=O)C1(c2cccc(O)c2)CCN(C)CC1 ?
Data returned: 156

Data request: Subsequent entry: O=C(/C=C/c1ccc(-c2ccc(Br)cc2)o1)c1ccccc1 [(2E)-3-[5-(4-Bromophenyl)-2-furyl]-1-phenylprop-2-en-1-one]
Data returned: 129

Data request: Another molecule to check: Cc1cccc(C(=O)O)c1
Data returned: 110

Data request: Follow-up entry: Nc1ccc(CO)cc1
Data returned: 61

====

Overview of reported melting point across a group of compounds:
Unit °C implied. Number only.

Data request: Requested read-out: melting point. Entry: CC=1CCCC(C)(C)C=1/C=CC(C)=CC=CC(/C)=CCO
Data returned: 63.5

Data request: What do we get for CP(C)CCP(C)C ?
Data returned: 180

Data request: Note, next up: O=[N+]([O-])c1cccc2c(/C=N/c3ccccc3)cccc12 [N-[(1E)-(5-nitronaphthalen-1-yl)methylidene]aniline]
Data returned: 84

Data request: Would you mind doing CCCCCBr as well?
Data returned: -95

====

Recorded melting point for the following molecules
// units = °C; emit number, no label

Below: 3 molecules and their reported melting point.
Cc1ccn[nH]c1=O; 154
C1CCC(NC2CCCCC2)CC1 [N-Cyclohexylcyclohexanamine]; -1
CCOC(=O)c1ccc(N=C=S)cc1 [4-(ethoxycarbonyl)phenyl isothiocyanate]; 54

Okay, now this molecule:
Data request: Recorded melting point of Nc1cnc2ccccc2c1 , please.
Data returned: 94

====

Measured melting point, listed per entry.
In your response, the unit should come after the numeric value.

Some entries whose results are on file:
Cc1cc(CCl)c(C)cc1CCl; 132 °C
CC(C)NCC(O)COc1cccc2ccccc12 (stereo not drawn); 162 °C

Pending molecule:
Data request: Fill blank: measured melting point of the molecule C=C[C@H]1C[N@@]2CC[C@H]1C[C@H]2[C@H](O)c1ccnc2ccc(OC)cc12 is ____.
Data returned: 177 °C
